# Tested on: CDC2L5
# Construct: gene CDK13
# RUN_PARAMETERS: concentration: 1 μM, replicates: in singlicate; n = 1;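 further: KINOMEscan kinase panel screen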
Kindly state %Inh for each of the entries shown.

Sample records with %Inh:
COMPOUND: Cl.c1ccc(-c2ccc3c(Nc4ccc5[nH]ncc5c4)ccnc3c2)nc1
%Inh: 0%
--
COMPOUND: O=C(Nc1ccccc1F)NC1CCN(c2ccnc(Nc3ccc(F)cc3)n2)CC1
%Inh: 0%
--
COMPOUND: CC(C)(C)c1ccc2nccc(Nc3cccc(O)c3)c2c1
%Inh: 36%
--
COMPOUND: Nc1n[nH]c2cnc(-c3ccccc3)cc12
%Inh: 0%
--
COMPOUND: c1ccc(Oc2ccc(Nc3ccnc4cc(-c5ccc(CNCCN6CCOCC6)o5)ccc34)cc2)nc1
%Inh: 0%

For every item in the list below, what is its measured %Inh?
1. CN(C)Cc1ccc(-c2ccc3c(Nc4ccc(Oc5ccccn5)cc4)ccnc3c2)o1
2. COc1cc(Nc2nccc(N3CCC(NC(=O)c4cc5ccccc5s4)C3)n2)cc(OC)c1OC (stereo not shown)
3. CN1CCN(Cc2cccc(-c3ccc4c(Nc5ccc(Oc6ccccc6)cc5)ccnc4c3)c2)CC1
4. COc1ccc(-c2coc3ccc(-c4nnc(SCc5ccc(OC)c(C(F)(F)F)c5)o4)cc23)cc1
5. Oc1cc(Nc2ccnc3cc(I)ccc23)ccc1F
6. CC(=O)N1CCN(c2ccc(Nc3nccc(-c4sc(C(C)C)nc4-c4cccc(NS(=O)(=O)c5cccc(Cl)c5)c4)n3)cn2)CC1
7. Cn1cc(-c2[nH]c3cc(NC(=O)[C@H](N)C4CCCCC4)cc4c3c2C=NNC4=O)cn1

Output line:
1. 0%
2. 0%
3. 0%
4. 0%
5. 0%
6. 21%
7. 0%

The reported value for `O=C(Nc1cccc(-c2nn3ccccc3c2-c2ccnc(Nc3cccc(F)c3)n2)c1)c1c(F)ccc(F)c1Cl` in terms of %Inh is 0%

====

# Tested on: AAK1
# RUN_PARAMETERS: concentration: 1 μM, replicates: in singlicate; n = 1
Values of %Inh greater than or equal to 20% map to true (1); values below map to false (0).

As a guide, the following entries are already answered.
SMILES_INPUT: COc1ccc(-c2coc3ccc(-c4nnc(SCc5ccc(OC)c(C(F)(F)F)c5)o4)cc23)cc1
ASSIGNED_LABEL: false (0)
//
SMILES_INPUT: COc1ccc(CNC(=O)NC2CCN(c3ccnc(Nc4ccc(F)cc4)n3)CC2)cc1
ASSIGNED_LABEL: false (0)
//
SMILES_INPUT: C[C@@H](Oc1cc(-n2cnc3cc(-c4ccnc(NCCS(C)(=O)=O)c4)ccc32)sc1C(N)=O)c1ccccc1Cl
ASSIGNED_LABEL: true (1)

Input line: Can `COc1cccc(-c2ccc3c(NC(=O)C4CC4)n[nH]c3n2)c1` be said to have %Inh at or above 20%?
Output line: false (0)

Input line: Quick check, %Inh >= 20%? `O=C(Nc1cccc(-c2nn3ncccc3c2-c2ccnc(Nc3ccccc3)n2)c1)c1c(F)cccc1F`
Output line: false (0)

Input line: Can `Cl.c1ccc(-c2ccc3c(Nc4ccc5[nH]ncc5c4)ccnc3c2)nc1` be said to have %Inh at or above 20%?
Output line: false (0)

====

Record form. Attribute: %Inh. Fill in for each entry.
# Tested on: EPHB2
# RUN_PARAMETERS: concentration: 1 μM, replicates: in singlicate; n = 1
One number for each entry, in %.

MOLECULE: Cn1cc(-c2ccc3c(c2)CCN3C(=O)Cc2cccc(F)c2)c2c(N)ncnc21
%Inh [%]: 0

MOLECULE: Clc1ccc(-c2nn3ncccc3c2-c2ccnc(Nc3ccc4c(c3)OCCO4)n2)cc1
%Inh [%]: 13

MOLECULE: Cl.Cl.NCC(NCc1ccc(-c2ccnc3[nH]ccc23)s1)c1ccccc1 (centres unmarked)
%Inh [%]: 0

MOLECULE: COc1cc(Nc2nccc(N3CCC(NC(=O)c4cc5ccccc5s4)C3)n2)cc(OC)c1OC (centres unmarked)
%Inh [%]: 26

MOLECULE: Cc1ccc(C)c(NC(=O)NC2CCN(c3ccnc(Nc4ccc(F)cc4)n3)C2)c1 (centres unmarked)
%Inh [%]: 16

List reported %Inh for each of these molecules:
1. Nc1ncc(-c2cccnc2)c2scc(-c3ccc4c(c3)CCN4C(=O)Cc3ccccc3)c12
2. Cn1cc(-c2ccc3c(c2)CCN3C(=O)Cc2cccc(Cl)c2)c2c(N)ncnc21

Output line:
9
0

Please report %Inh for every entry that follows.
1. Cl.c1ccc(-c2ccc3c(Nc4ccc5[nH]ncc5c4)ccnc3c2)nc1
2. Cc1cccc(Nc2nc(N[C@H]3CCNC3)ncc2C(N)=O)c1.Cl

Output line:
1. 0
2. 0

Hey, just so you know, these numbers are from paper PMC5540273.
